// reported inhibition at 3 µM for each item listed
assay-system: Human CaV2.2 channels (Homo sapiens)
Construct: expressed in transfected cells; Kir2.3 also stably co-expressed
Sequence (Q00975 whole entry): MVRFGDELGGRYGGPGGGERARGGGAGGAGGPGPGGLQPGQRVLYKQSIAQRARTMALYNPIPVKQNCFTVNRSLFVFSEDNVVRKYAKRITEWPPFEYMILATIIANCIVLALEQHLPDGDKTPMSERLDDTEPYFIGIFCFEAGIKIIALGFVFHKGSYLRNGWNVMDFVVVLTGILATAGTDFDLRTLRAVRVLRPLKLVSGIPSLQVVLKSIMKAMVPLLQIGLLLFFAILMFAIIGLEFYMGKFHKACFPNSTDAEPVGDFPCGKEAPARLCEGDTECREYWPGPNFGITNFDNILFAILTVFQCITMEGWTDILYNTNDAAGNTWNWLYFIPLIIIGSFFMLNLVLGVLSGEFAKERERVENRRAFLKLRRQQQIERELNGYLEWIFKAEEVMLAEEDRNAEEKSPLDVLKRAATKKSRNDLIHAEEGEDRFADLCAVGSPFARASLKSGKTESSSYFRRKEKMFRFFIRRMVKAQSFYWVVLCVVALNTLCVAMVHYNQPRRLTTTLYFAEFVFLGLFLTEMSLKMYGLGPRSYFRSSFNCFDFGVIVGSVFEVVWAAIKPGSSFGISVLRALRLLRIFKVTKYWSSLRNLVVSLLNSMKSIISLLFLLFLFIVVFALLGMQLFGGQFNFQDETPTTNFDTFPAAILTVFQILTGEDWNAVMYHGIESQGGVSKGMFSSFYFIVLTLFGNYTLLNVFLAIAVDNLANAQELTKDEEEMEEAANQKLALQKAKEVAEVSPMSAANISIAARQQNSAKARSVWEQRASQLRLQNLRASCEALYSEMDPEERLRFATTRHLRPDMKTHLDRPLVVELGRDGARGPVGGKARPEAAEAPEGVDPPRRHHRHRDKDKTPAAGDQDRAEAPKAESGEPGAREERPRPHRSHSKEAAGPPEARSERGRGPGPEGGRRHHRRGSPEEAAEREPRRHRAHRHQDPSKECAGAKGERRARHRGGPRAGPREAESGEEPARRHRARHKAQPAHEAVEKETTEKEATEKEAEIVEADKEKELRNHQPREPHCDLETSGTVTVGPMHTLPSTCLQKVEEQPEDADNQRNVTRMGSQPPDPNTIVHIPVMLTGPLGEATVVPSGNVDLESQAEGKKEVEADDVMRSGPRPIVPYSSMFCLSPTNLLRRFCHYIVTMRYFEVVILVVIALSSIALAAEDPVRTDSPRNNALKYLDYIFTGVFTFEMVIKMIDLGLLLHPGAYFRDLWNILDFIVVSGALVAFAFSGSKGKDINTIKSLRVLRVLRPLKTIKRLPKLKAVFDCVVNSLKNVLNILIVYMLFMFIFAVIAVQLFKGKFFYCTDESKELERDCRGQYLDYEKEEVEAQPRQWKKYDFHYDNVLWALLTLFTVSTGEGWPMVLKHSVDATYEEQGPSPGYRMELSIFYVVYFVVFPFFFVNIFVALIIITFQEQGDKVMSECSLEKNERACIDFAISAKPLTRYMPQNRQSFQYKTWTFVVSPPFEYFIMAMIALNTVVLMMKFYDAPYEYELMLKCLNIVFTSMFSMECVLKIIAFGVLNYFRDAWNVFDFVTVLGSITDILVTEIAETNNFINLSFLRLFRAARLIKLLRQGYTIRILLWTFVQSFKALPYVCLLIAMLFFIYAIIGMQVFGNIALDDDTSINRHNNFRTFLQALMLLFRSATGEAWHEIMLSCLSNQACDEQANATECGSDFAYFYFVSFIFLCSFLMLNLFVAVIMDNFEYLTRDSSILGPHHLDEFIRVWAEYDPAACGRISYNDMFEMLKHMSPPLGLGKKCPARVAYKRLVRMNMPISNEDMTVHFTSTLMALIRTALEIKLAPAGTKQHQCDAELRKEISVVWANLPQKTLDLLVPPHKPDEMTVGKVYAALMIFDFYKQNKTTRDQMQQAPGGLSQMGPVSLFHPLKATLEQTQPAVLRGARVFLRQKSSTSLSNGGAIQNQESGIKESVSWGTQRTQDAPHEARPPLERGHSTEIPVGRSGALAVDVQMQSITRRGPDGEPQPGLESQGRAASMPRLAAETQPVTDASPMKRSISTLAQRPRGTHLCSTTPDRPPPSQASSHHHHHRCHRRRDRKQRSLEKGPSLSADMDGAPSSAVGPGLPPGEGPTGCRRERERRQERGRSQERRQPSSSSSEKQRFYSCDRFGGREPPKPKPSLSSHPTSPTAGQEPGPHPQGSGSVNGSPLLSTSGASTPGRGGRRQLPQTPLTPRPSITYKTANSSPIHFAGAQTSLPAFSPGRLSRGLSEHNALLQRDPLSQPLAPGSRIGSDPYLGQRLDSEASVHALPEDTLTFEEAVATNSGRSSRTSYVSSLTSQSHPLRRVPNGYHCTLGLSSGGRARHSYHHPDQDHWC
protocol-description: Fluorescence assay for CaV2.2 channels using potassium depolarization to induce channel opening (FLIPR, Fluo 4)
Format: cell-based
conditions-used: HEK293, 3 μM test compound, 30 mM KCl assay buffer (inactivated channel state), HEK293 cells; read-out: Activity Category: %-Inhib (CaV2.2) @3 μM @30 mM KCl
parameter: inhibition at 3 µM

| compound | experimental-result |
| --- | --- |
| CC1(c2ccc(Cl)cc2)CC(S(=O)(=O)c2cccc(C(F)(F)F)c2)CCO1 (stereo not shown) [SC-140] | 75 to 95% |
| CC1(S(=O)(=O)c2cccc(C(F)(F)F)c2)CCOC(c2ccc(S(=O)(=O)CCO)cc2)C1 (stereo not shown) [SC-286] | 75 to 95% |
| Cc1ccc(C(F)(F)F)cc1S(=O)(=O)C1CCOC(c2ccc(Cl)cc2)C1 (stereo not shown) [SC-108] | 75 to 95% |
| CC1(S(=O)(=O)c2cccc(C3CC3)c2)CCOC(c2ccc(S(C)(=O)=O)cc2F)C1 (racemic) [SC-514] | > 95% |
| CC1(C)CC(C)(S(=O)(=O)c2cccc(C(F)(F)F)c2)CC(c2ccc(Cl)cc2)O1 (stereo not shown) [SC-300] | > 95% |
| CC1(S(=O)(=O)c2cccc(C(F)(F)F)c2)CCOC(c2ccc(F)c(S(C)(=O)=O)c2)C1 (stereo not shown) [SC-212] | > 95% |
| CC1(S(=O)(=O)c2cccc(C(F)(F)F)c2)CCOC(c2ccc3c(c2)CCO3)C1 (stereo not shown) [SC-263] | > 95% |
| CC1(S(=O)(=O)c2cccc(C(F)(F)F)c2)CCOC(c2ccc(Cl)cc2S(C)(=O)=O)C1 (stereo not shown) [SC-114] | 75 to 95% |
| CC1(S(=O)(=O)c2cccc(C(F)(F)F)c2)CCOC(Cc2ccc(Cl)cc2)C1 (single isomer, unassigned) [SC-130] | 75 to 95% |
| CC1(S(=O)(=O)c2cccc(C(F)(F)F)c2)CCOC(c2ccc(S(C)(=O)=O)cc2)C1 (stereo not shown) [SC-112] | > 95% |
| CC1(S(=O)(=O)c2cccc(C(F)(F)F)c2)CCOC(c2cc(S(C)(=O)=O)ccc2C2CC2)C1 (stereo not shown) [SC-277] | > 95% |
| COc1cc(C2CC(C)(S(=O)(=O)c3cccc(C(F)(F)F)c3)CCO2)ccc1Cl (stereo not shown) [SC-226] | > 95% |
| CC1(S(=O)(=O)c2cccc(C(F)(F)F)c2)CCC(c2ccc(Cl)cc2)OC1 (single isomer, unassigned) [SC-116] | 40 to 75% |
| CC1(S(=O)(=O)c2cccc(C(F)(F)F)c2)CCOC(c2ccc(F)c(C#N)c2)C1 (single isomer, unassigned) [SC-136] | > 95% |
| CC1(S(=O)(=O)c2cccc(C(F)(F)F)c2)CCOC(c2cc(F)ccc2S(C)(=O)=O)C1 (stereo not shown) [SC-205] | 75 to 95% |
| CC1(S(=O)(=O)c2cccc(C(F)(F)F)c2)CCOC(c2ccc3c(c2)OC(F)(F)O3)C1 (stereo not shown) [SC-259] | > 95% |
| CC1(C)CC(C)(S(=O)(=O)c2cccc(C(F)(F)F)c2)CC(c2ccc(Cl)cc2)O1 (racemic) [SC-302] | 75 to 95% |
| CC(C)Oc1cccc(S(=O)(=O)C2(C)CCOC(c3ccc(S(C)(=O)=O)cc3F)C2)c1 (stereo not shown) [SC-500] | 75 to 95% |
| CC1(S(=O)(=O)c2cccc(C(F)(F)F)c2)CCOC(COc2ccc(Cl)cc2)C1 (single isomer, unassigned) [SC-127] | > 95% |
